# key: entry, value: Imax
System: COLO 205
Assay: Cytotoxicity against human COLO 205 cells assessed as maximum inhibition of cell viability upto 198 uM incubated for 72 hrs by MTS assay relative to control
Assay type: functional
Conditions: up to 198 µM

Which Imax reading was recorded for the molecule C[C@H](NP(=S)(OC[C@@H]1C[C@@H](O)[C@H](n2cnc3c(N)ncnc32)O1)Oc1ccccc1)C(=O)OCc1ccccc1 (some centres undefined) ?
99%

Which Imax reading was recorded for the molecule C[C@H](NP(=S)(OC[C@H]1O[C@@H](n2ccc(N)nc2=O)C(F)(F)[C@@H]1O)Oc1ccccc1)C(=O)OCc1ccccc1 (some centres undefined) ?
97%

Which Imax reading was recorded for the molecule C[C@H](NP(=S)(OC[C@H]1O[C@@H](n2cc(F)c(=O)[nH]c2=O)C[C@@H]1O)Oc1cccc2ccccc12)C(=O)OCc1ccccc1 (some centres undefined) ?
100%

Which Imax reading was recorded for the molecule CC(=O)O[C@H]1C(=O)[C@@]2(C)[C@H]([C@H](OC(=O)c3ccccc3)[C@]3(O)C[C@H](OC(=O)[C@H](O)[C@@H](NC(=O)c4ccccc4)c4ccccc4)C(C)=C1C3(C)C)[C@]1(OC(C)=O)CO[C@@H]1C[C@@H]2O ?
90%

Which Imax reading was recorded for the molecule Nc1ccn([C@@H]2O[C@H](CO)[C@@H](O)C2(F)F)c(=O)n1 ?
86%

====

Tested on: A2780
Assay: Cytotoxicity against human A2780 cells assessed as maximum inhibition of cell viability upto 198 uM incubated for 72 hrs by MTS assay relative to control
Type: functional
Conditions: up to 198 µM
# key: entry, value: Imax
Field format: number, assumed %, no unit text.

The examples below pair each entry with its known result.
COMPOUND	Imax [%]
C[C@H](NP(=S)(OC[C@H]1O[C@@H](n2ccc(N)nc2=O)C(F)(F)[C@@H]1O)Oc1ccccc1)C(=O)OCc1ccccc1 (some centres undefined)	100
Nc1ccn([C@@H]2O[C@H](CO)[C@@H](O)C2(F)F)c(=O)n1	85
CC(=O)O[C@H]1C(=O)[C@@]2(C)[C@H]([C@H](OC(=O)c3ccccc3)[C@]3(O)C[C@H](OC(=O)[C@H](O)[C@@H](NC(=O)c4ccccc4)c4ccccc4)C(C)=C1C3(C)C)[C@]1(OC(C)=O)CO[C@@H]1C[C@@H]2O	72

Which Imax reading was recorded for the compound C[C@H](NP(=O)(OC[C@H]1O[C@@H](n2ccc(N)nc2=O)C(F)(F)[C@@H]1O)Oc1ccccc1)C(=O)OCc1ccccc1 (some centres undefined) [FOSGEMCITABINE PALABENAMIDE] ?
76

====

Assay: Cytotoxicity against human ACHN-luc2 cells assessed as maximum inhibition of cell viability upto 198 uM incubated for 72 hrs by MTS assay relative to control
Assay type: functional
Details: up to 198 µM
QUANTITY_MEASURED: Imax
Record the result as a number with its unit.

The examples below pair each entry with its known result.
MOLECULE	Imax
C[C@H](NP(=O)(OC[C@@H]1C[C@@H](O)[C@H](n2cnc3c(N)ncnc32)O1)Oc1ccccc1)C(=O)OCc1ccccc1 (some centres undefined) [FOSDESDENOSINE SIPALABENAMIDE]	62%
Nc1ncnc2c1ncn2[C@@H]1O[C@H](CO)C[C@H]1O [CORDYCEPIN]	14%
C[C@H](NP(=S)(OC[C@@H]1C[C@@H](O)[C@H](n2cnc3c(N)ncnc32)O1)Oc1ccccc1)C(=O)OCc1ccccc1 (some centres undefined)	97%

We next turn to a different molecule, shown below.
Which Imax reading was recorded for the molecule CC(=O)O[C@H]1C(=O)[C@@]2(C)[C@H]([C@H](OC(=O)c3ccccc3)[C@]3(O)C[C@H](OC(=O)[C@H](O)[C@@H](NC(=O)c4ccccc4)c4ccccc4)C(C)=C1C3(C)C)[C@]1(OC(C)=O)CO[C@@H]1C[C@@H]2O ?
47%

====

Test system: BXPC-3
Test: Cytotoxicity against human BXPC-3 cells assessed as inhibition of cell viability incubated for 72 hrs by MTS assay
Format: functional, cell-based
Details: BXPC-3, 72 h
QUANTITY_MEASURED: IC50 (nM)
Field format: number, assumed nM, no unit text.

COMPOUND	IC50, nM
Nc1ccn([C@@H]2O[C@H](CO)[C@@H](O)C2(F)F)c(=O)n1	1810

Which IC50 reading was recorded for the compound CC(=O)O[C@H]1C(=O)[C@@]2(C)[C@H]([C@H](OC(=O)c3ccccc3)[C@]3(O)C[C@H](OC(=O)[C@H](O)[C@@H](NC(=O)c4ccccc4)c4ccccc4)C(C)=C1C3(C)C)[C@]1(OC(C)=O)CO[C@@H]1C[C@@H]2O ?
5

Which IC50 reading was recorded for the compound C[C@H](NP(=S)(OC[C@H]1O[C@@H](n2ccc(N)nc2=O)C(F)(F)[C@@H]1O)Oc1ccccc1)C(=O)OCc1ccccc1 (some centres undefined) ?
8160

Which IC50 reading was recorded for the compound C[C@H](NP(=O)(OC[C@H]1O[C@@H](n2ccc(N)nc2=O)C(F)(F)[C@@H]1O)Oc1ccccc1)C(=O)OCc1ccccc1 (some centres undefined) [FOSGEMCITABINE PALABENAMIDE] ?
330

====

Tested on: K562
Assay: Cytotoxicity against human K562 cells assessed as maximum inhibition of cell viability upto 198 uM incubated for 72 hrs by MTS assay relative to control
Assay type: functional
Conditions: up to 198 µM
# key: entry, value: Imax
Field format: number, assumed %, no unit text.

COMPOUND	Imax [%]
C[C@H](NP(=S)(OC[C@@H]1C[C@@H](O)[C@H](n2cnc3c(N)ncnc32)O1)Oc1ccccc1)C(=O)OCc1ccccc1 (some centres undefined)	96

Param readout= Imax; system= K562; entry= CC(=O)O[C@H]1C(=O)[C@@]2(C)[C@H]([C@H](OC(=O)c3ccccc3)[C@]3(O)C[C@H](OC(=O)[C@H](O)[C@@H](NC(=O)c4ccccc4)c4ccccc4)C(C)=C1C3(C)C)[C@]1(OC(C)=O)CO[C@@H]1C[C@@H]2O [PACLITAXEL] ; returns value.
87

Param readout= Imax; system= K562; entry= Nc1ncnc2c1ncn2[C@@H]1O[C@H](CO)C[C@H]1O [CORDYCEPIN] ; returns value.
70

Param readout= Imax; system= K562; entry= C[C@H](NP(=O)(OC[C@@H]1C[C@@H](O)[C@H](n2cnc3c(N)ncnc32)O1)Oc1ccccc1)C(=O)OCc1ccccc1 (some centres undefined) [FOSDESDENOSINE SIPALABENAMIDE] ; returns value.
83

====

Test system: HT-29
Assay: Cytotoxicity against human HT-29 cells assessed as inhibition of cell viability incubated for 72 hrs by MTS assay
Format: functional, cell-based
Conditions: HT-29, 72 h
# key: entry, value: pIC50
A value of pIC50 is the negative decimal logarithm of a concentration given in moles per litre.

The examples below pair each entry with its known result.
MOLECULE	pIC50
Nc1ccn([C@@H]2O[C@H](CO)[C@@H](O)C2(F)F)c(=O)n1 [GEMCITABINE]	7.15
C[C@H](NP(=S)(OC[C@H]1O[C@@H](n2cc(F)c(=O)[nH]c2=O)C[C@@H]1O)Oc1cccc2ccccc12)C(=O)OCc1ccccc1 (stereo not given in full)	5.55
C[C@H](NP(=O)(OC[C@@H]1C[C@@H](O)[C@H](n2cnc3c(N)ncnc32)O1)Oc1ccccc1)C(=O)OCc1ccccc1 (stereo not given in full) [FOSDESDENOSINE SIPALABENAMIDE]	5.02

Which pIC50 reading was recorded for the molecule C[C@H](NP(=O)(OC[C@H]1O[C@@H](n2ccc(N)nc2=O)C(F)(F)[C@@H]1O)Oc1ccccc1)C(=O)OCc1ccccc1 (stereo not given in full) [FOSGEMCITABINE PALABENAMIDE] ?
6.32

Which pIC50 reading was recorded for the molecule C[C@H](NP(=S)(OC[C@H]1O[C@@H](n2ccc(N)nc2=O)C(F)(F)[C@@H]1O)Oc1ccccc1)C(=O)OCc1ccccc1 (stereo not given in full) ?
4.94

====

System: A2780
Assay: Cytotoxicity against human A2780 cells assessed as inhibition of cell viability incubated for 72 hrs by MTS assay
Format: functional, cell-based
Details: A2780, 72 h
# key: entry, value: pIC50
A value of pIC50 is the negative decimal logarithm of a concentration given in moles per litre.

The examples below pair each entry with its known result.
COMPOUND	pIC50
CC(=O)O[C@H]1C(=O)[C@@]2(C)[C@H]([C@H](OC(=O)c3ccccc3)[C@]3(O)C[C@H](OC(=O)[C@H](O)[C@@H](NC(=O)c4ccccc4)c4ccccc4)C(C)=C1C3(C)C)[C@]1(OC(C)=O)CO[C@@H]1C[C@@H]2O	8.10
C[C@H](NP(=S)(OC[C@H]1O[C@@H](n2ccc(N)nc2=O)C(F)(F)[C@@H]1O)Oc1ccccc1)C(=O)OCc1ccccc1 (some centres undefined)	5.45
C[C@H](NP(=O)(OC[C@H]1O[C@@H](n2ccc(N)nc2=O)C(F)(F)[C@@H]1O)Oc1ccccc1)C(=O)OCc1ccccc1 (some centres undefined) [FOSGEMCITABINE PALABENAMIDE]	6.57

We next turn to a different compound, shown below.
Which pIC50 reading was recorded for the compound Nc1ccn([C@@H]2O[C@H](CO)[C@@H](O)C2(F)F)c(=O)n1 ?
6.49
